# maps each entry to its pIC50
system: 485176-168-R4-J1-PDC complex spheroid growth; test: Anticancer human tumor 485176-168-R4-J1-PDC patient-derived pancreatic adenocarcinoma cell line growth inhibition [RAS]; details: curve of first compound; second compound 0.000949 µM
pIC50: −log10 of the molar value.

Examples from the recorded data:
>  <compound>
CCC(CC)c1cc(NC2CCC(N)C2)n2nccc2n1 (stereo not drawn) + CCn1c(-c2cccnc2C(C)OC)c2c3cc(ccc31)N1CCOC(CC(NC(=O)C(C(C)C)N(C)C(=O)C3(F)CCN(C(=O)C#CC(C)(C)N(C)C)CC3)C(=O)N3CCCC(N3)C(=O)OCC(C)(C)C2)C1

>  <pIC50>
5.90

$$$$
>  <compound>
Cc1nc(N2CCC3(CC2)COC(C)C3N)c(CO)nc1Sc1ccnc(N)c1Cl (stereo not drawn) + CCn1c(-c2cc(N3CCN(C)CC3)cnc2C(C)OC)c2c3cc(ccc31)-c1csc(n1)CC(NC(=O)C1CC1C)C(=O)N1CCCC(N1)C(=O)OCC(C)(C)C2

>  <pIC50>
< 5.00

$$$$
>  <compound>
CC(=O)OC12COC1CC(O)C1(C)C(=O)C(O)C3=C(C)C(OC(=O)C(O)C(NC(=O)OC(C)(C)C)c4ccccc4)CC(O)(C(OC(=O)c4ccccc4)C21)C3(C)C (stereo not drawn) + CCn1c(-c2cc(N3CCN(C)CC3)cnc2C(C)OC)c2c3cc(ccc31)-c1csc(n1)CC(NC(=O)C1CC1C)C(=O)N1CCCC(N1)C(=O)OCC(C)(C)C2

>  <pIC50>
> 7.50

$$$$
>  <compound>
NC1c2ccccc2OC12CCN(c1cnc3c(N4CCCc5ncccc54)n[nH]c3n1)CC2 (stereo not drawn) + CCn1c(-c2cc(N3CCN(C)CC3)cnc2C(C)OC)c2c3cc(ccc31)-c1csc(n1)CC(NC(=O)C1CC1C)C(=O)N1CCCC(N1)C(=O)OCC(C)(C)C2

>  <pIC50>
< 5.00

$$$$
>  <compound>
C=CC(=O)Nc1cc(Nc2nccc(-c3cn(C)c4ccccc34)n2)c(OC)cc1N(C)CCN(C)C + CCn1c(-c2cc(N3CCN(C)CC3)cnc2C(C)OC)c2c3cc(ccc31)-c1csc(n1)CC(NC(=O)C1CC1C)C(=O)N1CCCC(N1)C(=O)OCC(C)(C)C2

>  <pIC50>
< 6.00

$$$$

Name the recorded pIC50 for CCc1c2c(nc3ccc(O)cc13)-c1cc3c(c(=O)n1C2)COC(=O)[C@]3(O)CC + CCn1c(-c2cc(N3CCN(C)CC3)cnc2C(C)OC)c2c3cc(ccc31)-c1csc(n1)CC(NC(=O)C1CC1C)C(=O)N1CCCC(N1)C(=O)OCC(C)(C)C2 .
7.86

Name the recorded pIC50 for CC(Nc1ccc2c(c1)OCCn1cc(N3C(=O)OCC3C(F)F)nc1-2)C(N)=O (stereo not drawn) + CCn1c(-c2cc(N3CCN(C)CC3)cnc2C(C)OC)c2c3cc(ccc31)-c1csc(n1)CC(NC(=O)C1CC1C)C(=O)N1CCCC(N1)C(=O)OCC(C)(C)C2 .
< 5.00

Name the recorded pIC50 for O=C(c1ccc(F)c(F)c1Nc1ccc(I)cc1F)N1CC(O)([C@@H]2CCCCN2)C1 + CCn1c(-c2cc(N3CCN(C)CC3)cnc2C(C)OC)c2c3cc(ccc31)-c1csc(n1)CC(NC(=O)C1CC1C)C(=O)N1CCCC(N1)C(=O)OCC(C)(C)C2 .
6.94

====

test system: 485176-168-R4-J1-PDC complex spheroid growth; assay: Anticancer human tumor 485176-168-R4-J1-PDC cell line growth inhibition [RAS]; details: second compound 0.03 µM; first compound 0.000949 µM; stronger effect = lower value;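 further: spheroids exposed to compounds for seven days before readout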;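 on viability, T/C: luminescence viability expressed relative to DMSO vehicle wells set as 100%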
# maps each entry to its viability, T/C
# value in %; strip the unit string

Examples from the recorded data:
>  <compound>
CCc1c2c(nc3ccc(O)cc13)-c1cc3c(c(=O)n1C2)COC(=O)[C@]3(O)CC + CCn1c(-c2cccnc2C(C)OC)c2c3cc(ccc31)N1CCOC(CC(NC(=O)C(C(C)C)N(C)C(=O)C3(F)CCN(C(=O)C#CC(C)(C)N(C)C)CC3)C(=O)N3CCCC(N3)C(=O)OCC(C)(C)C2)C1

>  <unit>
%

>  <viability, T/C>
96.3

$$$$
>  <compound>
CC1(C)CCC(Nc2ncc(C(F)(F)F)c(-c3c[nH]c4c(P(C)(C)=O)c(C#N)ccc34)n2)CN1 (centres undefined) + CCn1c(-c2cc(N3CCN(C)CC3)cnc2C(C)OC)c2c3cc(ccc31)-c1csc(n1)CC(NC(=O)C1CC1C)C(=O)N1CCCC(N1)C(=O)OCC(C)(C)C2

>  <unit>
%

>  <viability, T/C>
101

$$$$
>  <compound>
CCc1c2c(nc3ccc(O)cc13)-c1cc3c(c(=O)n1C2)COC(=O)[C@]3(O)CC + CCn1c(-c2cc(N3CCN(C)CC3)cnc2C(C)OC)c2c3cc(ccc31)-c1csc(n1)CC(NC(=O)C1CC1C)C(=O)N1CCCC(N1)C(=O)OCC(C)(C)C2

>  <unit>
%

>  <viability, T/C>
70.7

$$$$

Now, please, on to the next compound.
Name the recorded viability, T/C for CC1(C)CCC(Nc2ncc(C(F)(F)F)c(-c3c[nH]c4c(P(C)(C)=O)c(C#N)ccc34)n2)CN1 (centres undefined) + CCn1c(-c2cccnc2C(C)OC)c2c3cc(ccc31)N1CCOC(CC(NC(=O)C(C(C)C)N(C)C(=O)C3(F)CCN(C(=O)C#CC(C)(C)N(C)C)CC3)C(=O)N3CCCC(N3)C(=O)OCC(C)(C)C2)C1 .
89.4

====

test system: 485176-168-R4-J1-PDC complex spheroid growth; experiment: Anticancer human tumor 485176-168-R4-J1-PDC cell line growth inhibition [RAS]; settings: second compound 0.316 µM; first compound 0.0316 µM; stronger effect = lower value;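 further: spheroids exposed to compounds for seven days before readout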;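 on viability, T/C: luminescence viability expressed relative to DMSO vehicle wells set as 100%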
Define the label as MET when viability, T/C is strictly less than 90% and as NOT MET in all remaining cases.

>  <compound>
Cc1nc(N2CCC3(CC2)COC(C)C3N)c(CO)nc1Sc1ccnc(N)c1Cl (stereo not given) + C#Cc1c(F)ccc2cc(O)cc(-c3ncc4c(N5CC6CCC(C5)N6)nc(OCC56CCCN5CC(F)C6)nc4c3F)c12

>  <target-desc>
485176-168-R4-J1-PDC complex spheroid growth

>  <class-name>
MET

$$$$

Lab note: viability, T/C threshold 90%. Does this compound come in strictly under it? C=CC(=O)Nc1cc(Nc2nccc(-c3cn(C)c4ccccc34)n2)c(OC)cc1N(C)CCN(C)C + C#Cc1c(F)ccc2cc(O)cc(-c3ncc4c(N5CC6CCC(C5)N6)nc(OCC56CCCN5CC(F)C6)nc4c3F)c12
NOT MET

Lab note: viability, T/C threshold 90%. Does this compound come in strictly under it? NC1c2ccccc2OC12CCN(c1cnc3c(N4CCCc5ncccc54)n[nH]c3n1)CC2 (stereo not given) + C=CC(=O)N1CCN(c2nc(OCC3CCCN3C)nc3c(F)c(-c4nc(N)cc(C)c4C(F)(F)F)c(Cl)cc23)C(C)C1
MET

Lab note: viability, T/C threshold 90%. Does this compound come in strictly under it? CC(C)NCC(C(=O)N1CCN(c2ncnc3c2C(C)CC3O)CC1)c1ccc(Cl)cc1 (stereo not given) + C#Cc1c(F)ccc2cc(O)cc(-c3ncc4c(N5CC6CCC(C5)N6)nc(OCC56CCCN5CC(F)C6)nc4c3F)c12
NOT MET

====

tested on: 485176-168-R4-J1-PDC complex spheroid growth; experiment: Anticancer human tumor 485176-168-R4-J1-PDC cell line growth inhibition [RAS]; details: second compound 10 µM; first compound 3.16 µM; active = viability on the fitted dose curve at most 10% of control; inactive = the rest;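 further: spheroids exposed to compounds for seven days before readout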
Hello, when you answer, please use one of the following outcomes: True = active, False = inactive

>  <molecule>
CC(C)NCC(C(=O)N1CCN(c2ncnc3c2C(C)CC3O)CC1)c1ccc(Cl)cc1 (stereo not given) + C#Cc1c(F)ccc2cc(O)cc(-c3ncc4c(N5CC6CCC(C5)N6)nc(OCC56CCCN5CC(F)C6)nc4c3F)c12

>  <class-name>
False

$$$$

What call does the record list for Cc1nc(N2CCC3(CC2)COC(C)C3N)c(CO)nc1Sc1ccnc(N)c1Cl (stereo not given) + C#Cc1c(F)ccc2cc(O)cc(-c3ncc4c(N5CC6CCC(C5)N6)nc(OCC56CCCN5CC(F)C6)nc4c3F)c12 ?
False

What call does the record list for CCC(CC)c1cc(NC2CCC(N)C2)n2nccc2n1 (stereo not given) + C#Cc1c(F)ccc2cc(O)cc(-c3ncc4c(N5CC6CCC(C5)N6)nc(OCC56CCCN5CC(F)C6)nc4c3F)c12 ?
True

What call does the record list for C[C@@H](NC(=O)c1ncnc(N)c1Cl)c1ncc(C(=O)Nc2cc(C(F)(F)F)c(Cl)cn2)s1 + C#Cc1c(F)ccc2cc(O)cc(-c3ncc4c(N5CC6CCC(C5)N6)nc(OCC56CCCN5CC(F)C6)nc4c3F)c12 ?
False

What call does the record list for NC1c2ccccc2OC12CCN(c1cnc3c(N4CCCc5ncccc54)n[nH]c3n1)CC2 (stereo not given) + C#Cc1c(F)ccc2cc(O)cc(-c3ncc4c(N5CC6CCC(C5)N6)nc(OCC56CCCN5CC(F)C6)nc4c3F)c12 ?
False
